Listed here: items and their measured TGI.
Tested on: TK-10 renal
Assay: NCI tumour cell line growth inhibition, 48 h
measuredProperty: TGI

[[record]]
compound = "S=C1Cc2c(-c3ccccc3)cc(-c3cccc(Cl)c3)nc2-c2ccccc2N1"
systemname = "TK-10 renal"
measurement = "1.9 µM"

[[record]]
compound = "O=C1CC(c2cccc(Cl)c2)Nc2ccc(N3CCCC3)cc21 (stereo unspecified)"
systemname = "TK-10 renal"
measurement = "> 100 µM"

[[record]]
compound = "COc1ccc(Nc2cnc3cc(N)cc(N)c3n2)cc1"
systemname = "TK-10 renal"
measurement = "76.2 µM"

[[record]]
compound = "[B]C(=O)NC(CC(C)C)C(=O)NCC(=O)NC1c2ccsc2C(=O)C1O (stereo unspecified) (tested in a mixture with another compound)"
systemname = "TK-10 renal"
measurement = "> 100 µM"

[[record]]
compound = "O=C(COc1ccc(/C=C2\\Oc3ccccc3C2=O)cc1)Nc1nc2ccccc2s1"
systemname = "TK-10 renal"
measurement = "> 100 µM"

[[record]]
compound = "O=C1c2cc3c(cc2-c2c1c1ccc(Cl)cc1c(=O)n2C[C@H](O)CO)OCO3"
systemname = "TK-10 renal"
measurement = "1.76 µM"

[[record]]
compound = "NC(N)=NCCCC(NCc1c2ccccc2nc2ccccc12)C(=O)O (stereo unspecified)"
systemname = "TK-10 renal"
measurement = "> 100 µM"

[[record]]
compound = "OCCCCC#Cc1ccccc1C#Cc1cccc(C(F)(F)F)c1"
systemname = "TK-10 renal"
measurement = "32.2 µM"

[[record]]
compound = "CCCC(=O)CC(C)C(=O)C(=O)NC12CC3CC(CC(C3)C1)C2 (stereo unspecified)"
systemname = "TK-10 renal"
measurement = "> 100 µM"

[[record]]
compound = "Cc1ccc(S(=O)(=O)OC2CC(C(C)(C)C)CCC2c2ccccc2)cc1 (stereo unspecified)"
systemname = "TK-10 renal"
measurement = "> 100 µM"

[[record]]
compound = "C[C@H](C(=O)O)C(=O)NC(=O)N(Cc1ccccc1)N=O"
systemname = "TK-10 renal"
measurement = "> 100 µM"


---

Test system: MDA-MB-231 breast
Assay: NCI tumour cell line growth inhibition, 48 h
measuredProperty: TGI (µM)

[[record]]
compound = "Cc1cc(C)c(-c2no/c(=N\\S(=O)(=O)c3ccc(Cl)cc3)o2)c(C)c1"
systemname = "MDA-MB-231 breast"
boundtype = ">"
measurement = 100

[[record]]
compound = "N#Cc1c(NC(=O)C(F)(F)F)sc2c3c(=O)c4ccccc4c(=O)c=3oc3ccccc3c12"
systemname = "MDA-MB-231 breast"
boundtype = "="
measurement = 67

[[record]]
compound = "O=c1[nH]c2[nH]c(=S)[nH]c(=S)c2[nH]1"
systemname = "MDA-MB-231 breast"
boundtype = ">"
measurement = 100

[[record]]
compound = "CNCc1ccc(-c2cc(-c3nc(-c4ccc(S(=O)(=O)C(C)C)cc4)cnc3N)on2)cc1"
systemname = "MDA-MB-231 breast"
boundtype = "="
measurement = 19.6

[[record]]
compound = "CCN1CCC(O)(c2ccc([N+](=O)[O-])cc2)C(C(=O)c2ccc([N+](=O)[O-])cc2)C1 (centres undefined)"
systemname = "MDA-MB-231 breast"
boundtype = "="
measurement = 41.9

[[record]]
compound = "Cc1ccc(S[C@@](C=O)(NC(=O)OCc2ccccc2)C(F)(F)F)cc1"
systemname = "MDA-MB-231 breast"
boundtype = "="
measurement = 58.7

[[record]]
compound = "CCCCCCCCCCCC[C@@H](O)[C@H]1CC[C@H]([C@H](O)CC[C@H](O)[C@@H]2CC[C@@H](CCCCCCCC3=C[C@H](C)OC3=O)O2)O1"
systemname = "MDA-MB-231 breast"
boundtype = ">"
measurement = 50

[[record]]
compound = "NNc1nnc(CCCCCCCCc2nnc(NN)n2N)n1N"
systemname = "MDA-MB-231 breast"
boundtype = ">"
measurement = 100

[[record]]
compound = "C=C(CN1CCc2[nH]c3ccc(F)cc3c2C1)c1ccc(C(=O)Nc2ccccc2N)cc1"
systemname = "MDA-MB-231 breast"
boundtype = "="
measurement = 11.3

